system: Caldalkalibacillus thermarum TA2.A1; test: Selectivity ratio of IC50 for wild type Caldalkalibacillus thermarum TA2.A1 NDH2 to IC50 for C-terminal His-tagged Caldalkalibacillus thermarum TA2.A1 NDH2 R382C mutant
Property name: Ratio IC50
Give bare numbers.

Structure string: CN(C)CCSSCCNC(=O)c1c(N)cccc1Cl
Ratio IC50: 0.8
//
Structure string: CN(C)CCSSCCNC(=O)c1ccc(C#Cc2ccccc2)o1
Ratio IC50: 0.9
//
Structure string: CN(C)CCSSCCCNC(=O)c1cccc(N(C)C)c1
Ratio IC50: 2.8

Okay, here is my list. What is Ratio IC50 for each of these?
1. CN(C)CCSSCCNC(=O)CCC(=O)c1ccccn1
2. CN(C)CCSSCCNC(=O)c1cccc2cc[nH]c12
3. CN(C)CCSSCCNC(=O)[C@H]1CCCN(C(=O)c2cc3cccc(O)c3cc2O)C1

[9.3, 0.9, 0.6]

---

system: Caldalkalibacillus thermarum TA2.A1; test: Selectivity ratio of IC50 for wild type Caldalkalibacillus thermarum TA2.A1 NDH2 to IC50 for C-terminal His-tagged Caldalkalibacillus thermarum TA2.A1 NDH2 R347C mutant
Consider the following compounds; for each one, report its Ratio IC50.
Give bare numbers.

Answered examples (5):
Compound: CN(C)CCSSCCNC(=O)C(CC(=O)c1ccccc1)c1cc2ccccc2n1C (stereo not given)
Result number: 1.3

Compound: CN(C)CCSSCCNC(=O)c1c(N)cccc1Cl
Result number: 0.8

Compound: CN(C)CCSSCCNC(=O)c1ccc(C#Cc2ccccc2)o1
Result number: 0.9

Compound: CN(C)CCSSCCn1cc(-c2ccc(N(C)C)cc2)nn1
Result number: 3.6

Compound: CN(C)CCSSCCCNC(=O)c1cccc(N(C)C)c1
Result number: 2.8

Okay, here is my list. What is Ratio IC50 for each of these?
1. NCCSSCCNC(=O)C1CCN(C(=O)c2ccc3ncsc3c2)CC1
2. CN(C)CCSSCCNC(=O)[C@H]1CCCN(C(=O)c2ccc(-n3cccc3)cc2)C1
3. CN(C)CCSSCCNC(=O)c1cccc2cc[nH]c12
4. CN(C)CCSSCCNC(=O)[C@H]1CCCN(C(=O)c2cc3cccc(O)c3cc2O)C1
5. CN(C)CCSSCCNC(=O)CCC(=O)c1ccccn1

3.7
3
0.9
0.6
9.3

---

test: Inhibition of wild type Caldalkalibacillus thermarum TA2.A1 NDH2 preincubated for 1 hr followed by NADH addition measured after 8 mins
Property name: pIC50
One number for each entry, as −log10 of the molar value.

Compound: CN(C)CCSSCCNC(=O)[C@H]1CCCN(C(=O)c2cc3cccc(O)c3cc2O)C1
Property name: pIC50
Result number: 4.95
--
Compound: CN(C)CCSSCCNC(=O)[C@H]1CCCN(C(=O)c2ccc(-n3cccc3)cc2)C1
Property name: pIC50
Result number: 4.10
--
Compound: CN1CCN(CCCN2c3ccccc3Sc3ccc(C(F)(F)F)cc32)CC1
Property name: pIC50
Result number: 4.30

Okay, here is my list. What is pIC50 for each of these?
1. CN(C)CCSSCCNC(=O)CCC(=O)c1ccccn1
2. CN(C)CCSSCCNC(=O)c1ccc(C#Cc2ccccc2)o1
3. CN(C)CCSSCCn1cc(-c2ccc(N(C)C)cc2)nn1
4. CN(C)CCSSCCNC(=O)c1c(N)cccc1Cl
5. CN(C)CCSSCCCNC(=O)c1cccc(N(C)C)c1
6. NCCSSCCNC(=O)C1CCN(C(=O)c2ccc3ncsc3c2)CC1
7. CN(C)CCSSCCNC(=O)c1cccc2cc[nH]c12
8. CN(C)CCSSCCNC(=O)C(CC(=O)c1ccccc1)c1cc2ccccc2n1C (stereo unspecified)

1. 4.37
2. 5.25
3. 3.83
4. 4.42
5. 4.44
6. 4.28
7. 4.21
8. 4.89

---

test system: Caldalkalibacillus thermarum TA2.A1; assay: Selectivity ratio of IC50 for wild type Caldalkalibacillus thermarum TA2.A1 NDH2 to IC50 for C-terminal His-tagged Caldalkalibacillus thermarum TA2.A1 NDH2 R382C mutant
Consider the following compounds; for each one, report its Ratio IC50.
Answers are plain numbers.

Answered examples (3):
Compound: CN(C)CCSSCCNC(=O)C(CC(=O)c1ccccc1)c1cc2ccccc2n1C (centres undefined)
Target desc: Caldalkalibacillus thermarum TA2.A1
Ratio IC50: 1.3
//
Compound: CN(C)CCSSCCNC(=O)[C@H]1CCCN(C(=O)c2ccc(-n3cccc3)cc2)C1
Target desc: Caldalkalibacillus thermarum TA2.A1
Ratio IC50: 3
//
Compound: NCCSSCCNC(=O)C1CCN(C(=O)c2ccc3ncsc3c2)CC1
Target desc: Caldalkalibacillus thermarum TA2.A1
Ratio IC50: 3.7

Give the measured Ratio IC50 of CN(C)CCSSCCn1cc(-c2ccc(N(C)C)cc2)nn1 . 3.6
